- system: Somatostatin receptor type 2 (Homo sapiens, UniProt P30874)
- Sequence (P30874 whole entry): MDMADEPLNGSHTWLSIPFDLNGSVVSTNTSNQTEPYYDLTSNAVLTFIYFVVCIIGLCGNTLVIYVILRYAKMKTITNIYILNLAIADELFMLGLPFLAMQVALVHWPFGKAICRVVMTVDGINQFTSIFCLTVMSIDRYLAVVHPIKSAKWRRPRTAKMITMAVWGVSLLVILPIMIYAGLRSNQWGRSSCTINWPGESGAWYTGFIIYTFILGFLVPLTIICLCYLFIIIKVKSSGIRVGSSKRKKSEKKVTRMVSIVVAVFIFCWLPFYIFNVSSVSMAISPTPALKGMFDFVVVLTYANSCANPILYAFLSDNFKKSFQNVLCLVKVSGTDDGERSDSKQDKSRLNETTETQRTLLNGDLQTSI
- measurement-description: Agonist activity at human SST2 expressed in CHO-K1 cells assessed as reduction in NKH477-induced intracellular cAMP accumulation
- Type: functional, cell-based
- conditions-used: read-out: EC50
quantity-measured: EC50 (nM)

molecule | system | EC50, nM
Cc1cc(Cl)cc(N2C=Nc3cc(C)c(-c4cc(O)ccc4F)cc3C2C(=O)N(C)C[C@@H]2CCCN2)c1 (stereo partly drawn) | Somatostatin receptor type 2 (Homo sapiens, UniProt P30874) | 0.2
Cc1cc(Cl)cc(N2C=Nc3cc(C)c(-c4cnn(C)c4)cc3C2C(=O)N(C)C[C@@H]2CCCN2)c1 (stereo partly drawn) | Somatostatin receptor type 2 (Homo sapiens, UniProt P30874) | 170
Cc1cc(Cl)cc(N2C=Nc3cc(C)c(-c4cc(F)ccc4O)cc3C2C(=O)N(C)C[C@@H]2CCCN2)c1 (stereo partly drawn) | Somatostatin receptor type 2 (Homo sapiens, UniProt P30874) | 2.1
Cc1cc(Cl)cc(N2C=Nc3cc(C)c(-c4ccccc4)cc3C2C(=O)N(C)C[C@@H]2CCCN2)c1 (stereo partly drawn) | Somatostatin receptor type 2 (Homo sapiens, UniProt P30874) | 56
Cc1cc(Cl)cc(N2C=Nc3cc(C)c(-c4cccc(C#N)c4)cc3C2C(=O)N(C)C[C@@H]2CCCN2)c1 (stereo partly drawn) | Somatostatin receptor type 2 (Homo sapiens, UniProt P30874) | 5.4

I: Cc1cc(Cl)cc(N2C=Nc3cc(C)c(-c4ccc5[nH]c(=O)[nH]c5c4)cc3C2C(=O)N(C)C[C@@H]2CCCN2)c1 (stereo partly drawn)
II: Cc1cc(Cl)cc(N2C=Nc3cc(C)c(-c4cc(O)cc(F)c4)cc3C2C(=O)N(C)C[C@@H]2CCCN2)c1 (stereo partly drawn)
input: Which entry shows the lesser value of EC50 here, I or II ? Bench note: the answer is the label of the chosen record.
output: II

----------
- system: Somatostatin receptor type 2 (Homo sapiens, UniProt P30874)
- measurement-description: Agonist activity at human SST2 expressed in CHO-K1 cells assessed as reduction in NKH477-induced intracellular cAMP accumulation
- Assay type: functional, cell-based
- conditions-used: read-out: EC50
quantity-measured: EC50 (nM)

compound | quantity-measured | unit-name | reported-value
Cc1cc(Cl)cc(N2C=Nc3cc(C)c(-c4cncc(C#N)c4)cc3C2C(=O)N(C)C[C@@H]2CCCN2)c1 (some centres undefined) | EC50 | nM | 11

1: CC[C@H](N)CN(C)C(=O)C1c2cc(-c3cccc(O)c3)c(Cl)cc2N=CN1c1cc(C)cc(C)c1 (some centres undefined)
2: Cc1cc(C)cc(N2C=Nc3cc(C)c(-c4cccc(O)c4)cc3C2C(=O)N(C)C[C@@H]2CCCN2)c1 (some centres undefined)
3: Cc1cc(Cl)cc(N2C=Nc3cc(C)c(-c4cc(O)cc(C#N)c4)cc3C2C(=O)N(C)C[C@@H]2CCCN2)c1 (some centres undefined)
input: Rank items: key EC50, increasing. Present the labels in the sequence the task asks for.
output: 3, 2, 1
(3: 0.36 nM, 2: 1.3 nM, 1: 11 nM)

----------
- measurement-description: Oral bioavailability in Sprague-Dawley rat at 10 mg/kg
- Type: ADME, organism-based
- conditions-used: in vivo
quantity-measured: bioavailability

input: Please give the measured bioavailability for this compound: Cc1cc(Cl)cc(N2C=Nc3cc(C)c(-c4cccc(F)c4O)cc3C2C(=O)N(C)CC2CCCN2)c1 (stereo unspecified)
output: < 5%

----------
- system: Somatostatin receptor type 2 (Homo sapiens)
- measurement-description: Agonist activity at SST2 (unknown origin)
quantity-measured: EC50 (nM)

compound | reported-value
Cc1cc(Cl)cc(N2C=Nc3cc(C)c(-c4cc(F)cc(C(N)=O)c4)cc3C2C(=O)N(C)C[C@@H]2CCCN2)c1 (some centres undefined) | 0.158

P: Cc1cc(Cl)cc(N2C=Nc3cc(C)c(-c4cc(O)cc(F)c4)cc3C2C(=O)N(C)C[C@@H]2CCCN2)c1 (some centres undefined)
Q: Cc1cc(Cl)cc(N2C=Nc3cc(C)c(-c4cc(O)ccc4F)cc3C2C(=O)N(C)C[C@@H]2CCCN2)c1 (some centres undefined)
R: Cc1cc(Cl)cc(N2C=Nc3cc(C)c(-c4cc(F)cc(C#N)c4)cc3C2C(=O)N(C)C[C@@H]2CCCN2)c1 (some centres undefined)
input: Order the 3 compounds from highest to lowest EC50. Present the labels in the sequence the task asks for.
output: R, Q, P
(R: 1.26 nM, Q: 0.2 nM, P: 0.126 nM)

----------
- system: Somatostatin receptor type 2 (Rattus norvegicus, UniProt P30680)
- Sequence (P30680 whole entry): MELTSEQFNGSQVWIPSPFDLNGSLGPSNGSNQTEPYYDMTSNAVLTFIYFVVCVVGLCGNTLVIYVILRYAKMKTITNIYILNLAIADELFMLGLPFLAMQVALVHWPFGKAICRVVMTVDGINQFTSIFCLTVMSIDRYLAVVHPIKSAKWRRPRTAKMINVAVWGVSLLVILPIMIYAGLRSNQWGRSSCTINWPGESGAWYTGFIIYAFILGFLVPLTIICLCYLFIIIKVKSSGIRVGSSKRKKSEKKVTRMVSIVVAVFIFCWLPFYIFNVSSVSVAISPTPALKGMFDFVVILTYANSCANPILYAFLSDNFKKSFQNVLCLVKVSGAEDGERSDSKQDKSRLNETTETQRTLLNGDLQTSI
- measurement-description: Agonist activity at rat SST2
quantity-measured: EC50 (pM)
Please give a number only; it is taken to be in pM.

input: Form field - read-out: EC50; system: Somatostatin receptor type 2 (Rattus norvegicus, UniProt P30680); submitted item: Cc1cc(Cl)cc(N2C=Nc3cc(C)c(-c4cccc(F)c4O)cc3C2C(=O)N(C)CC2CCCN2)c1 (stereo unspecified)
output: 540

----------
- system: Somatostatin receptor type 2 (Homo sapiens, UniProt P30874)
- measurement-description: Agonist activity at human SST2 expressed in CHO-K1 cells assessed as reduction in NKH477-induced intracellular cAMP accumulation
- Type: functional, cell-based
- conditions-used: read-out: EC50
quantity-measured: EC50 (nM)

Worked examples, 3 molecules total:
molecule | unit-name | EC50
Cc1cc(Cl)cc(N2C=Nc3cc(C)c(-c4cc(F)cc(C#N)c4)cc3C2C(=O)N(C)C[C@@H]2CCCN2)c1 (stereo not given in full) | nM | 1.3
Cc1cc(Cl)cc(N2C=Nc3cc(C)c(-c4cc(F)cc(C(N)=O)c4)cc3C2C(=O)N(C)C[C@@H]2CCCN2)c1 (stereo not given in full) | nM | 0.15
Cc1cc(F)cc(N2C=Nc3cc(C)c(-c4cccc(O)c4)cc3C2C(=O)N(C)C[C@@H]2CCCN2)c1 (stereo not given in full) | nM | 0.98

I: Cc1cc(Cl)cc(N2C=Nc3cc(C)c(-c4cc(F)cc(F)c4)cc3C2C(=O)N(C)C[C@@H]2CCCN2)c1 (stereo not given in full)
II: Cc1cc(Cl)cc(N2C=Nc3cc(C)c(-c4cccc(NS(C)(=O)=O)c4)cc3C2C(=O)N(C)C[C@@H]2CCCN2)c1 (stereo not given in full)
input: Two entries are listed, I and II . Which one carries the higher EC50? Bench note: the answer is the label of the chosen record.
output: II
(II: 130 nM, I: 3.7 nM)

A: CC[C@H](N)CN(C)C(=O)C1c2cc(-c3cccc(O)c3)c(C)cc2N=CN1c1cc(C)cc(C)c1 (stereo not given in full)
B: COc1cc(F)cc(-c2cc3c(cc2C)N=CN(c2cc(C)cc(Cl)c2)C3C(=O)N(C)C[C@@H]2CCCN2)c1 (stereo not given in full)
input: Which entry shows the lesser value of EC50 here, A or B ? Bench note: the answer is the label of the chosen record.
output: A

A: Cc1cc(Cl)cc(N2C=Nc3cc(C)c(-c4cccc(C(F)(F)F)c4)cc3C2C(=O)N(C)C[C@@H]2CCCN2)c1 (stereo not given in full)
B: Cc1cc(Cl)cc(N2C=Nc3cc(C)c(-c4cncc(O)c4)cc3C2C(=O)N(C)C[C@@H]2CCCN2)c1 (stereo not given in full)
input: Two entries are listed, A and B . Which one carries the higher EC50? Bench note: the answer is the label of the chosen record.
output: A

----------
- system: UniProt P32745
- Sequence (P32745 whole entry): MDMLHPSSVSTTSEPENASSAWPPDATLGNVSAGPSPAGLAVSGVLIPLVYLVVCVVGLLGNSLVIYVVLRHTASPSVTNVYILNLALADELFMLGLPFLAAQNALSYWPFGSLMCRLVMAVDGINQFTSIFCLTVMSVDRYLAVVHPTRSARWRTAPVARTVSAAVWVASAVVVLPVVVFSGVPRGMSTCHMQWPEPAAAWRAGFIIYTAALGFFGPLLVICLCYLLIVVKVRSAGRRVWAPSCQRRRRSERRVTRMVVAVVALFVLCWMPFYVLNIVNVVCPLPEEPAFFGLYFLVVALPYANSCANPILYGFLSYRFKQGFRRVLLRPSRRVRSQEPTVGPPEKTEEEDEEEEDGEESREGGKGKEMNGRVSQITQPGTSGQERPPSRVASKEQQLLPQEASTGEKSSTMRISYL
- measurement-description: Agonist activity at SST3 (unknown origin)
quantity-measured: EC50 (nM)

compound | unit-name | EC50
Cc1cc(Cl)cc(N2C=Nc3cc(C)c(-c4cc(O)cc(F)c4)cc3C2C(=O)N(C)C[C@@H]2CCCN2)c1 (some centres undefined) | nM | 7.94

a: Cc1cc(Cl)cc(N2C=Nc3cc(C)c(-c4cc(F)cc(C(N)=O)c4)cc3C2C(=O)N(C)C[C@@H]2CCCN2)c1 (some centres undefined)
b: Cc1cc(Cl)cc(N2C=Nc3cc(C)c(-c4cc(F)cc(C#N)c4)cc3C2C(=O)N(C)C[C@@H]2CCCN2)c1 (some centres undefined)
c: Cc1cc(Cl)cc(N2C=Nc3cc(C)c(-c4cccc(F)c4O)cc3C2C(=O)N(C)C[C@@H]2CCCN2)c1 (some centres undefined)
input: Order the 3 compounds from highest to lowest EC50. Present the labels in the sequence the task asks for.
output: c, a, b

----------
- system: Cytochrome P450 3A4 (Homo sapiens, UniProt P08684)
- Sequence (P08684 whole entry): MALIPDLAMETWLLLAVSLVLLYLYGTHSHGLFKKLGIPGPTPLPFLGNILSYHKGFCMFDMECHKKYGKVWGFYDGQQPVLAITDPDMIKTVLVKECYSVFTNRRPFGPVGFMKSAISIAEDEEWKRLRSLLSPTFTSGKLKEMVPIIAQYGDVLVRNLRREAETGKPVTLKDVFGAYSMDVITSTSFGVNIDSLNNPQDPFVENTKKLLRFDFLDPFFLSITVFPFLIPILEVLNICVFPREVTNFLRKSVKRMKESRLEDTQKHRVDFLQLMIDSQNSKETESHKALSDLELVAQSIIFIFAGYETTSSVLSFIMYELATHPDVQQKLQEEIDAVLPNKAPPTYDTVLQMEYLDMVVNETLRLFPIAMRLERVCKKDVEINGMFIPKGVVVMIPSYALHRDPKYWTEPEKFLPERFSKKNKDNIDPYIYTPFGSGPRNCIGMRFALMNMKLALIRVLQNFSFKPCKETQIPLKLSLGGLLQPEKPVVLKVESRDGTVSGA
- measurement-description: Inhibition of CYP3A4 (unknown origin)
- Assay type: ADME
quantity-measured: IC50 (nM)
Please give a number only; it is taken to be in nM.

input: Please give the measured IC50 for this compound: Cc1cc(Cl)cc(N2C=Nc3cc(C)c(-c4cc(F)cc(C(N)=O)c4)cc3C2C(=O)N(C)C[C@@H]2CCCN2)c1 (stereo partly specified)
output: 1000
